Value source: ChEMBL document CHEMBL5223099

# target_system: Cannabinoid receptor 2 (Homo sapiens, UniProt P34972)
# Sequence (P34972 whole entry): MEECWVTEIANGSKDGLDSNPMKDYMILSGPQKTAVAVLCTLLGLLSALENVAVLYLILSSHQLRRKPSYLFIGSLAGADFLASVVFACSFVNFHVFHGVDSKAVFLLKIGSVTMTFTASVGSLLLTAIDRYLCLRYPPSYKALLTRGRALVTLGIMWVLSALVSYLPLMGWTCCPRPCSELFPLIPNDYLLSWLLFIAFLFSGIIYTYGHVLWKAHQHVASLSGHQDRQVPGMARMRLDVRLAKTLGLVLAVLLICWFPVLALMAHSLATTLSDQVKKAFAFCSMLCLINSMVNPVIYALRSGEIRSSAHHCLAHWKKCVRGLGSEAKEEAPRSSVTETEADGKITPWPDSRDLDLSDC
# assay_summary: Binding affinity to wild type human CB2R expressed in HEK293 cells assessed as inhibition constant
# Type: cell-based
measured_endpoint: Ki (nM)

smiles_entry=CCCCCn1nc(C(=O)NC23CC4CC(CC(C4)C2)C3)c(C)c1-c1ccccc1 measured_endpoint=Ki observed_result=0.63

====

# target_system: Cannabinoid receptor 1 (Homo sapiens, UniProt P21554)
# Sequence (P21554 whole entry): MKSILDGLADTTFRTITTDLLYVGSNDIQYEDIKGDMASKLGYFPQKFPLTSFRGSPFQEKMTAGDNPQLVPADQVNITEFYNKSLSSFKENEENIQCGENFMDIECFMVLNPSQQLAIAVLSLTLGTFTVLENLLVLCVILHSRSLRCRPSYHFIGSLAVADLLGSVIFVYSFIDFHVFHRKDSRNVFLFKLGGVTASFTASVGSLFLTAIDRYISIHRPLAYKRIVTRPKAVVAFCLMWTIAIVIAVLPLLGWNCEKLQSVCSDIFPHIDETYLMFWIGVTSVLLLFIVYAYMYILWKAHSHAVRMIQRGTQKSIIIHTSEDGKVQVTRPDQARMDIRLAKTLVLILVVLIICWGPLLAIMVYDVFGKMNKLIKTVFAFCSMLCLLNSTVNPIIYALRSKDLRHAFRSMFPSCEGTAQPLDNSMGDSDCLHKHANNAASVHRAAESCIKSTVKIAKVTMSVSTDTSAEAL
pKi: −log10 of the molar value.
measured_endpoint: pKi

smiles_entry=Cc1c(C(=O)NC23CC4CC(CC(C4)C2)C3)nn(CCCCCO)c1-c1ccccc1 observed_result=7.89

====

# target_system: Cannabinoid receptor 1 (Rattus norvegicus, UniProt P20272)
# Sequence (P20272 whole entry): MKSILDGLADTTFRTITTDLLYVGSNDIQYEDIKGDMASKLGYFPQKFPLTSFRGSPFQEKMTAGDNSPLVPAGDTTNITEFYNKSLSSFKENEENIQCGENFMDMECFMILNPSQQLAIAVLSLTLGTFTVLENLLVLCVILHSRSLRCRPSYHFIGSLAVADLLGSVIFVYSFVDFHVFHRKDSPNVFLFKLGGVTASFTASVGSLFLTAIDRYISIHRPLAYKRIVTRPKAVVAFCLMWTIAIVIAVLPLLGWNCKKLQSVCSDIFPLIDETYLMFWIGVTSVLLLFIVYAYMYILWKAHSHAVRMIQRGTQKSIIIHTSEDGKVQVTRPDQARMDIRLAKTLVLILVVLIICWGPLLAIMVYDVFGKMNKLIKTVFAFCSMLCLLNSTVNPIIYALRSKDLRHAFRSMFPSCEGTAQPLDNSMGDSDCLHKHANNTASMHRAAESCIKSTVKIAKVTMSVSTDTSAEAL
# assay_summary: Antagonist activity at rat CB1R expressed in CHO cells assessed as inhibition of forskolin stimulated cyclic AMP production
measured_endpoint: Ki

smiles_entry=CCCCCCC(C)(C)c1cc(OC)c([C@H]2C=C(CO)[C@H]3C[C@@H]2C3(C)C)c(OC)c1 measured_endpoint=Ki observed_result="> 10 µM"
